- Test system: T1, cynomolgus IL-18BP (cynomolgus monkey)
- T1 construct: Generated in-house; also called cyIL-18BP; cyno IL-18BP
- T1 chain: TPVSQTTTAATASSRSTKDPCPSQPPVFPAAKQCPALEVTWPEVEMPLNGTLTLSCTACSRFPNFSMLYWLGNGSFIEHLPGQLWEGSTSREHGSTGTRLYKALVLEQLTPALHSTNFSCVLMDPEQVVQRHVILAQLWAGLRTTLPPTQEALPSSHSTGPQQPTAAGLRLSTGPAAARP
- Assay explanation: ratio of BLI KDs, cyno against human IL-18BP
Attribute measured: Cyno/human (ratio)

{"Binder": "SA303a (antibody, human IgG1, V domains shown, humanized; human IgG1 (suffix a), kappa) VH: QVQLQESGPGLVKPSQTLSLTCTVSGYSITSDYNAHWIRQPPGKGLEWIGYIHYSGSTNYNPSLKSRVTISRDTSKNQFSLKLSSVTAADTAVYYCARNFGSIYVNYFDYWGQGTLVTVSS VL: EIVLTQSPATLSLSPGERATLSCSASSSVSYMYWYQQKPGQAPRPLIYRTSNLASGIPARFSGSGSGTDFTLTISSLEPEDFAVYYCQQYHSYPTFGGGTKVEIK", "Reported value": 0.42}
{"Binder": "SA320a (antibody, human IgG1, V domains shown, humanized; human IgG1 (suffix a), kappa) VH: QVQLQESGPGLVKPSQTLSLTCTVSGYSITQDYNAHWIRQPPGKGLEWIGYIHYSGQTYYNPSLKSRVTISRDTSKNQFSLKLSSVTAADTAVYYCARNFGSIYVNYFDYWGQGTLVTVSS VL: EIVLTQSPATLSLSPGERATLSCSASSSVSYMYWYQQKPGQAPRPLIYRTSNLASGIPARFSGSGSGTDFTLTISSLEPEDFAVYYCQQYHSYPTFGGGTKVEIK", "Reported value": 0.38}
{"Binder": "SA322a (antibody, human IgG1, V domains shown, humanized; human IgG1 (suffix a), kappa) VH: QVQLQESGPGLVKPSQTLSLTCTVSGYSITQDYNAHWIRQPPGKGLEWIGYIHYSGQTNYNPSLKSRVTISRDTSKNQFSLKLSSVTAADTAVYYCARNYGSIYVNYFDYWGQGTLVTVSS VL: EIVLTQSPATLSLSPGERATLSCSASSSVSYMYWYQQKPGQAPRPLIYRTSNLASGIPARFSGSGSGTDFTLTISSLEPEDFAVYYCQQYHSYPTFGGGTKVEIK", "Reported value": 0.37}

The measured values listed here are drawn from patent US20250368745A1.
